System: PKN1
CONDITIONS: concentration: 1 μM, replicates: in singlicate; n = 1
Documented %Inh across a set of compounds
MEASURED METRIC: %Inh (%)

compound=CNc1nc(-c2ccc3c(N)n[nH]c3c2)cc(N2C[C@@H](C(=O)Nc3ccccc3)CC[C@H]2C)n1 units_label=% observed_value=0
compound=Nc1ncnc2occ(-c3ccc4c(c3)CCN4C(=O)Cc3cc(F)ccc3F)c12 units_label=% observed_value=7
compound=CS(=O)(=O)CCNCc1nc(-c2ccc3ncnc(Nc4ccc5c(cnn5Cc5ccccc5)c4)c3c2)cs1.Cl.Cl units_label=% observed_value=0
compound=Cc1ccc(NC(=O)Nc2ccccc2)cc1-c1ccc(C(=O)Nc2ccncc2)cc1 units_label=% observed_value=0
compound=Cc1c(Cn2c3ccccc3n3c(=O)cc(N4CCOCC4)nc23)cccc1C(F)(F)F units_label=% observed_value=100
compound=COc1cc2ncnc(Nc3cccc(Br)c3)c2cc1OC.Cl units_label=% observed_value=0
compound=Cc1ccc(NC(=O)Nc2ccc(Cl)cc2)cc1-c1ccc(C(=O)Nc2ccncc2)cc1 units_label=% observed_value=0
compound=CSc1ccc(-c2nc3n(c2-c2ccncc2)CCC3)cc1 units_label=% observed_value=0
compound="COc1ccc(Nc2nccc(N3CCC(NC(=O)c4cc5ccccc5s4)C3)n2)cc1 (stereo not drawn)" units_label=% observed_value=23

###

Documented %Inh across a set of molecules
Test system: CSNK2A1
CONDITIONS: concentration: 1 μM, replicates: in singlicate; n = 1
MEASURED METRIC: %Inh (%)

molecule=CC(=O)c1c(C)c2cnc(Nc3ccn(C)n3)nc2n(C2CCCC2)c1=O measured_metric=%Inh observed_value=56
molecule=Nc1ncnc2occ(-c3ccc4c(c3)CCN4C(=O)Cc3cc(F)ccc3F)c12 measured_metric=%Inh observed_value=0
molecule=O=C1NC(=O)C(c2ccc(Cl)cc2)=C1Nc1cccc(Cl)c1 measured_metric=%Inh observed_value=0
molecule=O=c1cc(N2CCOCC2)nc2n(Cc3cccc(Cl)c3Cl)c3ccccc3n12 measured_metric=%Inh observed_value=11
molecule="Cn1cncc1C(=O)NC1CCN(c2ccnc(Nc3ccc(F)cc3)n2)C1 (stereo not drawn)" measured_metric=%Inh observed_value=0
molecule=COc1cc2ncnc(Nc3cccc(Br)c3)c2cc1OC.Cl measured_metric=%Inh observed_value=8
molecule=c1ccc(-c2ccnc3[nH]ccc23)cc1 measured_metric=%Inh observed_value=0
molecule=Cc1c(Cn2c3ccccc3n3c(=O)cc(N4CCOCC4)nc23)cccc1C(F)(F)F measured_metric=%Inh observed_value=6
molecule=Fc1ccc(-c2nc3n(c2-c2ccncc2)CCS3)cc1 measured_metric=%Inh observed_value=10

###

Tested on: LIMK2;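 also: kd values determined as follow-up on hits from a single-replicate KINOMEscan panel screen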
MEASURED METRIC: Kd

chemical_smiles=CC(=O)c1c(C)c2cnc(Nc3ccc(N4CCNCC4)cn3)nc2n(C2CCCC2)c1=O observed_value="> 10 µM"

###

Tested on: MEK5
Construct: gene MAP2K5
CONDITIONS: concentration: 1 μM, replicates: in singlicate; n = 1
# binarize %Inh: threshold 9% inclusive, high side MET, low side NOT MET

molecule=Cc1ccc(NC(=O)c2ccc(Cl)cc2)cc1-c1ccc(C(=O)Nc2ccncc2)cc1 tgt=MEK5 class="NOT MET"
molecule=COc1ccc(Nc2nccc(-c3ccc(NC(=O)c4cc5cc(F)ccc5[nH]4)cc3)n2)cc1 tgt=MEK5 class="NOT MET"
molecule=O=c1cc(N2CCOCC2)nc2n(Cc3ccccc3F)ccn12 tgt=MEK5 class="NOT MET"
molecule=CCn1c(-c2c(N)noc2C)nc2cnccc21 tgt=MEK5 class=MET
molecule=Cc1ccc(NC(=O)Nc2ccc(Cl)cc2)cc1-c1ccc(C(=O)Nc2ccncc2)cc1 tgt=MEK5 class=MET
molecule=CNC(=O)c1ccc(C)c(-n2c(C)cc(OCc3ccc(F)cc3F)c(Br)c2=O)c1 tgt=MEK5 class="NOT MET"
molecule=Fc1ccc(-c2nn3cccc(F)c3c2-c2ccncc2)cc1 tgt=MEK5 class="NOT MET"
molecule=O=C(Nc1n[nH]c2nc(-c3cccs3)c(Br)cc12)C1CC1 tgt=MEK5 class=MET
molecule=NS(=O)(=O)c1cccc(N/C=C2\C(=O)Nc3ccc(S(=O)(=O)Cc4c(Cl)cccc4Cl)cc32)c1 tgt=MEK5 class=MET
molecule=FC(F)(F)c1ccccc1-c1cc(-c2c[nH]nc2-c2ccccn2)ccn1 tgt=MEK5 class="NOT MET"
molecule="COc1ccc(Nc2nccc(N3CCC(NC(=O)C(C)c4ccc(Cl)cc4)CC3)n2)cc1 (stereo not shown)" tgt=MEK5 class=MET
molecule=CS(=O)(=O)Cc1ccc(Nc2nccc(-c3c(-c4cccc(NC(=O)C5CCCCC5)c4)nn4ncccc34)n2)cc1 tgt=MEK5 class=MET
molecule="COc1cccc(CNC(=O)NC2CCN(c3ccnc(Nc4ccc(F)cc4)n3)C2)c1 (stereo not shown)" tgt=MEK5 class=MET
molecule=CNc1cc(-c2ccc3c(N)n[nH]c3c2)nc(N)n1 tgt=MEK5 class=MET
molecule=Cn1cncc1-c1cc2c(Nc3ccc(OCc4ccccc4)cc3)ncnc2cn1 tgt=MEK5 class=MET
molecule=O=C1NC(=O)C(c2ccc(Cl)cc2)=C1Nc1ccc(O)cc1 tgt=MEK5 class="NOT MET"
molecule=CC(=O)c1c(C)c2cnc(Nc3ccn(C)n3)nc2n(C2CCCC2)c1=O tgt=MEK5 class="NOT MET"
molecule=c1ccc(-c2ccnc3[nH]ccc23)cc1 tgt=MEK5 class=MET

###

Documented %Inh across a set of molecules
Test system: DCAMKL2
Construct: gene DCLK2
CONDITIONS: concentration: 1 μM, replicates: in singlicate; n = 1
MEASURED METRIC: %Inh (%)

molecule=Cn1cncc1-c1cc2c(Nc3ccc(OCc4ccccc4)cc3)ncnc2cn1 measured_metric=%Inh units_label=% observed_value=14
molecule=Cc1cnc(N)c(/C=C/c2cncc(C(=O)NCCc3ccc(Cl)cc3Cl)c2)c1.Cl measured_metric=%Inh units_label=% observed_value=0
molecule=CNc1nc(-c2ccc3c(N)n[nH]c3c2)cc(N2C[C@@H](C(=O)Nc3ccccc3)CC[C@H]2C)n1 measured_metric=%Inh units_label=% observed_value=11
molecule=COc1ccc(Nc2nccc(NCCNC(=O)Nc3cc(C)ccc3C)n2)cc1 measured_metric=%Inh units_label=% observed_value=0
molecule=CCCCc1nn2ncccc2c1-c1ccnc(NC2CC2)n1 measured_metric=%Inh units_label=% observed_value=0
molecule=O=c1cc(N2CCOCC2)nc2n(Cc3ccccc3F)ccn12 measured_metric=%Inh units_label=% observed_value=0
molecule=COc1ccc2cc(-c3nc(-c4ccccc4C(C)C)[nH]c3-c3ccncc3)ccc2c1 measured_metric=%Inh units_label=% observed_value=0
molecule="COC(=O)C(NC(=O)NC1CCN(c2ccnc(Nc3ccc(F)cc3)n2)C1)c1ccccc1 (stereo not drawn)" measured_metric=%Inh units_label=% observed_value=12
molecule=Cc1ccc(-c2nc(Nc3ccncc3)c3ccccc3n2)s1 measured_metric=%Inh units_label=% observed_value=30

###

System: MKK7
CONDITIONS: concentration: 1 μM, replicates: in singlicate; n = 1
Documented %Inh across a set of molecules
MEASURED METRIC: %Inh

molecule=CC(C)c1ccc(O)cc1Nc1ccnc2ccc(C(F)(F)F)cc12 observed_value=0%
molecule=CSc1ccc(-c2nc3n(c2-c2ccncc2)CCC3)cc1 observed_value=1%
molecule=O=c1cc(N2CCOCC2)nc2n(Cc3cccc(Cl)c3Cl)c3ccccc3n12 observed_value=28%
molecule="Cn1cncc1C(=O)NC1CCN(c2ccnc(Nc3ccc(F)cc3)n2)C1 (stereo not drawn)" observed_value=10%
molecule=CCc1ccc(-c2ccc3c(c2)-c2n[nH]cc2S(=O)(=O)N3C)cc1 observed_value=0%
molecule=COc1cccc(NC(=O)Nc2ccc(C)c(-c3ccc(C(=O)Nc4ccncc4)cc3)c2)c1 observed_value=14%
molecule=CN1c2ccc(-c3ccc(C(N)=O)cc3)cc2-c2[nH]ncc2S1(=O)=O observed_value=3%
molecule=CC(C)c1cc(-c2ccc3c(N)n[nH]c3c2)nc(N)n1 observed_value=0%
molecule="COC(=O)c1cccc(NC(=O)NC2CCN(c3ccnc(Nc4ccc(OC)cc4)n3)C2)c1 (stereo not drawn)" observed_value=7%

###

System: PRKD2
CONDITIONS: concentration: 1 μM, replicates: in singlicate; n = 1
Documented %Inh across a set of molecules
MEASURED METRIC: %Inh (%)

molecule="CNc1nc(-c2ccc3c(N)n[nH]c3c2)cc(N2C[C@@H](C(=O)NC3CCCCC3)OC[C@H]2C)n1 [GSK2375584]" observed_value=23
molecule="COc1cccc(NC(=O)Nc2ccc(C)c(-c3ccc(C(=O)Nc4ccncc4)cc3)c2)c1 [GSK1398474]" observed_value=0
molecule="Cc1cccc2c(-c3ccncn3)c(-c3ccc(F)cc3)nn12 [GW515532]" observed_value=0
molecule="NS(=O)(=O)c1cccc(N/C=C2\\C(=O)Nc3ccc(S(=O)(=O)Cc4c(Cl)cccc4Cl)cc32)c1 [GSK398099]" observed_value=0
molecule="CS(=O)(=O)CCNCc1nc(-c2ccc3ncnc(Nc4ccc(OCc5ccccc5)c(Cl)c4)c3c2)cs1.Cl [GW582764]" observed_value=0
molecule="O=C1NC(=O)C(c2ccc(Cl)cc2)=C1Nc1cccc(Cl)c1 [SB-317651]" observed_value=0
molecule="Cc1cnc(N)c(/C=C/c2cncc(C(=O)NCCc3ccc(Cl)cc3Cl)c2)c1.Cl [GSK190937]" observed_value=5
molecule=CNC(=O)c1ccc(C)c(-n2c(C)cc(OCc3ccc(F)cc3F)c(Br)c2=O)c1 observed_value=1
molecule="Cc1c(Cn2c3ccccc3n3c(=O)cc(N4CCOCC4)nc23)cccc1C(F)(F)F [GSK2306394]" observed_value=10
molecule=COc1ccc(-c2coc3ccc(-c4nnc(C)o4)cc23)cc1 observed_value=0
molecule="O=C(Nc1n[nH]c2nc(-c3cccs3)c(Br)cc12)C1CC1 [SB-735297]" observed_value=0
molecule="COc1ccc(Nc2nccc(-c3ccc(NC(=O)c4cc5cc(F)ccc5[nH]4)cc3)n2)cc1 [GSK1229496]" observed_value=0
molecule="CC(=O)c1cccc(NC(=O)NC2CCN(c3ccnc(Nc4ccc(F)cc4)n3)C2)c1 (centres unmarked) [GSK1379710]" observed_value=10
molecule=CNCc1ccc2nc(NC(=O)c3ccc(C(C)(C)C)cc3)cn2c1 observed_value=2
molecule="CC(C)c1cc(-c2ccc3c(N)n[nH]c3c2)nc(N)n1 [GSK2250882]" observed_value=0
molecule="CCn1c(-c2c(N)noc2C)nc2cnccc21 [SB-737856]" observed_value=11
molecule="CCn1c(-c2ccccc2)nc2cnccc21 [SB-733416]" observed_value=1
molecule=COc1ccc(CSc2nnc(-c3ccc4c(c3)CCO4)o2)cc1 observed_value=31
molecule="O=C(Nc1n[nH]c2cc(-c3ccsc3)ccc12)C1CC1 [SB-732932]" observed_value=0
molecule="Cn1cnc2c(N)ncnc21 [SKF-97623]" observed_value=1
molecule="O=c1cc(N2CCOCC2)nc2n(Cc3ccccc3F)ccn12 [GSK2297428]" observed_value=0
molecule="Cc1ccccc1-c1cc(-c2c[nH]nc2-c2ccccn2)ccn1 [GW680061]" observed_value=0
molecule=CC(=O)c1c(C)c2cnc(Nc3ccc(N4CCNCC4)cn3)nc2n(C2CCCC2)c1=O observed_value=0
molecule="Cc1ccc(NC(=O)Nc2ccccc2)cc1-c1ccc(C(=O)Nc2ccncc2)cc1 [GSK1398471]" observed_value=15
molecule="Cc1c(Cn2c(C)c(C)n3c(=O)cc(N4CCOCC4)nc23)cccc1C(F)(F)F [GSK2328680]" observed_value=18
molecule="COc1ccc(Nc2nccc(N3CCC(NC(=O)C(C)c4ccc(Cl)cc4)C3)n2)cc1 (centres unmarked) [GSK1379735]" observed_value=0
